protocol description: collision cross section of modified peptide (TIMS, N2, iRT-aligned); higher = larger / more extended gas-phase ion
test conditions: charge state: 2; modification: Glutarylation
readout name: collision cross section (Å²)

VFSIISSEKELK [_VFSIISSEK(Gluratylation)ELK_]	415.44
TQAYQDQKPGTSGLR [_TQAYQDQK(Gluratylation)PGTSGLR_]	436.36
VNVEAPDVNLEGLGGKLK [_VNVEAPDVNLEGLGGK(Gluratylation)LK_]	464.05
DTGEKLTVAENEAETK [_DTGEK(Gluratylation)LTVAENEAETK_]	451.19
DTPTSAGPNSFNKGK [_DTPTSAGPNSFNK(Gluratylation)GK_]	415.83

###

collision cross section overview
protocol description: collision cross section of modified peptide (TIMS, N2, iRT-aligned); higher = larger / more extended gas-phase ion
test conditions: charge state: 2; modification: Acetyl (K)
readout name: collision cross section (Å²)

PANEKATDDYHYEK [_PANEK(Acetyl (K))ATDDYHYEK_]	436.41
DAEAAEATAEGALKAEK [_DAEAAEATAEGALK(Acetyl (K))AEK_]	451.64
GTISAPGKVVTAAAQAK [_GTISAPGK(Acetyl (K))VVTAAAQAK_]	440.91
SGNLTEDDKHNNAK [_SGNLTEDDK(Acetyl (K))HNNAK_]	418.78
ALLQAKASGK [_ALLQAK(Acetyl (K))ASGK_]	343.77
SLKLNTAEDAK [_SLK(Acetyl (K))LNTAEDAK_]	373.49
YEEIVKEVSTYIK [_YEEIVK(Acetyl (K))EVSTYIK_]	431.89
TTGFYSGFSEVAEKR [_TTGFYSGFSEVAEK(Acetyl (K))R_]	434.33
VGIDTPDIDIHGPEGKLK [_VGIDTPDIDIHGPEGK(Acetyl (K))LK_]	490.05
ASAISIKLGSSK [_ASAISIK(Acetyl (K))LGSSK_]	368.59
DDSFLGKLGGTLAR [_DDSFLGK(Acetyl (K))LGGTLAR_]	410.51
DASTLQSQKAEGTGDAK [_DASTLQSQK(Acetyl (K))AEGTGDAK_]	431.11
DLSTVEALQNLKNLK [_DLSTVEALQNLK(Acetyl (K))NLK_]	475.96
AAQASDLEKIHLDEK [_AAQASDLEK(Acetyl (K))IHLDEK_]	454.7
SGKFTQQDIDEAK [_SGK(Acetyl (K))FTQQDIDEAK_]	412.93
FSAYIKNSNPALNDNLEK [_FSAYIK(Acetyl (K))NSNPALNDNLEK_]	479.82
TTEETSKPK [_TTEETSK(Acetyl (K))PK_]	334.91
SKLLFSNTAAQK [_SK(Acetyl (K))LLFSNTAAQK_]	396.66
ITASLCDLKSR [_ITASLCDLK(Acetyl (K))SR_]	383.24
SITHSTVGSKGEK [_SITHSTVGSK(Acetyl (K))GEK_]	391.66
LEKTIDDLEEK [_LEK(Acetyl (K))TIDDLEEK_]	403.37
VGEFSGANKEK [_VGEFSGANK(Acetyl (K))EK_]	363.56
VNVEAPDVNLEGLGGKLK [_VNVEAPDVNLEGLGGK(Acetyl (K))LK_]	460.53
SNEEGSEEKGPEVR [_SNEEGSEEK(Acetyl (K))GPEVR_]	400.7
LTSLNVKYNNDK [_LTSLNVK(Acetyl (K))YNNDK_]	407.77
GSLEKGSPEDK [_GSLEK(Acetyl (K))GSPEDK_]	363.99
GEVQVSDKER [_GEVQVSDK(Acetyl (K))ER_]	356.44
ISSNFSSIIAEKLR [_ISSNFSSIIAEK(Acetyl (K))LR_]	428.83
GFCFITYTDEEPVKK [_GFCFITYTDEEPVK(Acetyl (K))K_]	451.75
LLIVSTTPYSEKDTK [_LLIVSTTPYSEK(Acetyl (K))DTK_]	449.39
LAEEENKAK [_LAEEENK(Acetyl (K))AK_]	348.53
TQDQISNIKYHEEFEK [_TQDQISNIK(Acetyl (K))YHEEFEK_]	481.39
VNIGQGSHPQKVK [_VNIGQGSHPQK(Acetyl (K))VK_]	426.92
SKHLQEQLNELK [_SK(Acetyl (K))HLQEQLNELK_]	415.42
VDIDVPDVNIEGPDAKLK [_VDIDVPDVNIEGPDAK(Acetyl (K))LK_]	477.46
ISALQGKLSK [_ISALQGK(Acetyl (K))LSK_]	353.22
SSGPGGQNVNKVNSK [_SSGPGGQNVNK(Acetyl (K))VNSK_]	401.59
TVSKVDDFLANEAK [_TVSK(Acetyl (K))VDDFLANEAK_]	417.71
PGGEGPQCEKTTDVK [_PGGEGPQCEK(Acetyl (K))TTDVK_]	415.43
SEASSEFAKK [_SEASSEFAK(Acetyl (K))K_]	349.46
TPNLYIYSKK [_TPNLYIYSK(Acetyl (K))K_]	385.54
VFIGNLNTLVVKK [_VFIGNLNTLVVK(Acetyl (K))K_]	409.46
DYSAPVNFISAGLKK [_DYSAPVNFISAGLK(Acetyl (K))K_]	433.43
LGVATVAKGVCGACK [_LGVATVAK(Acetyl (K))GVCGACK_]	413.53

###

protocol description: collision cross section of modified peptide (TIMS, N2, iRT-aligned); higher = larger / more extended gas-phase ion
test conditions: charge state: 3; modification: Malonyl
The label depends only on collision cross section: Criterion met if it is at least 500 Å², Criterion not met if it is smaller.

GEVGAGAGPGAQAGPSAKR [_GEVGAGAGPGAQAGPSAK(Malonyl)R_]	Criterion not met
VGIDTPDIDIHGPEGKLK [_VGIDTPDIDIHGPEGK(Malonyl)LK_]	Criterion met

###

collision cross section overview
protocol description: collision cross section of modified peptide (TIMS, N2, iRT-aligned); higher = larger / more extended gas-phase ion
test conditions: charge state: 3; modification: Dimethyl (K)
readout name: collision cross section (Å²)

VDIDAPDVSIEGPDAKLK [_VDIDAPDVSIEGPDAK(Dimethyl (K))LK_]	550.49
AAINQKLIETGER [_AAINQK(Dimethyl (K))LIETGER_]	468.56
DLGKFQVATDALK [_DLGK(Dimethyl (K))FQVATDALK_]	478.59
SSGPGGQNVNKVNSK [_SSGPGGQNVNK(Dimethyl (K))VNSK_]	437.57
PSVGSQSNQAGQGKR [_PSVGSQSNQAGQGK(Dimethyl (K))R_]	470.05
LTSLNVKYNNDK [_LTSLNVK(Dimethyl (K))YNNDK_]	464.81
VGTASVLQPVKK [_VGTASVLQPVK(Dimethyl (K))K_]	440.56
VNIGQGSHPQKVK [_VNIGQGSHPQK(Dimethyl (K))VK_]	469.28
ASDTSSETVFGKR [_ASDTSSETVFGK(Dimethyl (K))R_]	469.84
DVNAAIAAIKTK [_DVNAAIAAIK(Dimethyl (K))TK_]	456.19
ASEALLKQLK [_ASEALLK(Dimethyl (K))QLK_]	439.24
TQDQISNIKYHEEFEK [_TQDQISNIK(Dimethyl (K))YHEEFEK_]	542.8
GTISAPGKVVTAAAQAK [_GTISAPGK(Dimethyl (K))VVTAAAQAK_]	493.04
PANEKATDDYHYEK [_PANEK(Dimethyl (K))ATDDYHYEK_]	491.56
GEVQVSDKER [_GEVQVSDK(Dimethyl (K))ER_]	422.58
VNVEAPDVNLEGLGGKLK [_VNVEAPDVNLEGLGGK(Dimethyl (K))LK_]	539.12
LGNDFHTNKR [_LGNDFHTNK(Dimethyl (K))R_]	412.91
IHVQSSSDSSDEPAEKR [_IHVQSSSDSSDEPAEK(Dimethyl (K))R_]	519.62
GGPGSTLSFVGKR [_GGPGSTLSFVGK(Dimethyl (K))R_]	425.47
ITLSKHQNVQLPR [_ITLSK(Dimethyl (K))HQNVQLPR_]	489.75
IISSIEQKEENK [_IISSIEQK(Dimethyl (K))EENK_]	464.23
ATVASSTQKFQDLGVK [_ATVASSTQK(Dimethyl (K))FQDLGVK_]	471.81

###

protocol description: collision cross section of modified peptide (TIMS, N2, iRT-aligned); higher = larger / more extended gas-phase ion
test conditions: charge state: 2; modification: Dimethyl (K)
readout name: collision cross section (Å²)

DVNAAIAAIKTK [_DVNAAIAAIK(Dimethyl (K))TK_]	394.29
PSVGSQSNQAGQGKR [_PSVGSQSNQAGQGK(Dimethyl (K))R_]	425.54
VGLQVVAVKAPGFGDNR [_VGLQVVAVK(Dimethyl (K))APGFGDNR_]	465.4
SGFGKFER [_SGFGK(Dimethyl (K))FER_]	334.57
IQQELQTAKK [_IQQELQTAK(Dimethyl (K))K_]	374.44
SITHSTVGSKGEK [_SITHSTVGSK(Dimethyl (K))GEK_]	401.87
TEVLSPNSKVESK [_TEVLSPNSK(Dimethyl (K))VESK_]	400.19
LEQVEKELLR [_LEQVEK(Dimethyl (K))ELLR_]	388.36
LTEKELAEAASK [_LTEK(Dimethyl (K))ELAEAASK_]	397.3
STGLELETPSLVPVKK [_STGLELETPSLVPVK(Dimethyl (K))K_]	456.56
LLEEEDSKLK [_LLEEEDSK(Dimethyl (K))LK_]	385.27
